Value source: paper PMC9119314

Let's look at some molecules and their measured selectivity ratio at 48 h.
Test: In vitro activity against T. brucei bloodstream forms (resazurin)
Type: cell-based, Trypanosoma brucei
Conditions: human; SI compared with Hep G cells (Table 1); read-out: Selectivity index (SI), T. brucei compared with cytotoxicity to Hep G cells (converted)
MEASUREMENT_NAME: selectivity ratio at 48 h

• C[n+]1c2ccccc2cc2[n-]c3ccc(I)cc3c21 [Compound 5, 7-iodocryptolepine] = 82.4
• C[n+]1c2ccccc2cc2[n-]c3c(Br)cc(Br)cc3c21 [Compound 4, 7,9-Dibromocryptolepine] = 240
• C[n+]1c2ccccc2cc2[n-]c3c(I)cc(I)cc3c21 [Compound 6, 7,9-diiodocryptolepine] = 478
